Kindly supply the reported % NleB1 inhibition (µM compound) / 20 values for the records listed here.
target: NleB1 (Escherichia coli); construct: GST-EHEC-NleB1 in pET42a (GST/His tagged), expressed in E. coli BL21 (DE3), nickel purified; some tag cleavage noted; conditions: 20 µM; inhibitor
// units = %; emit number, no label

Sample CCCCN1CC(COCc2ccccc2)Oc2cccc(Oc3ccc(F)cc3OC)c2S1(=O)=O (centres unmarked) [KUC106008N] ; % NleB1 inhibition (µM compound) / 20 observed: 22.4

Sample COCOCCn1cc(CN2CCS(=O)(=O)N(Cc3ccc(-c4ccc(F)nc4)cc3)C(CC(C)C)C2=O)nn1 (centres unmarked) [KUC105149N] ; % NleB1 inhibition (µM compound) / 20 observed: 38.8

Sample C[C@@H](NS(=O)(=O)c1cc(Cl)ccc1F)[C@H](O)c1ccccc1 [KUC103993N] ; % NleB1 inhibition (µM compound) / 20 observed: 31.8

Sample O=C(Cn1cc(COc2cccc([N+](=O)[O-])c2)nn1)c1ccc(O)cc1 [KUC104086N] ; % NleB1 inhibition (µM compound) / 20 observed: 24.5

Sample CCCCCCCCN1[C@@H](CC(=O)OC)c2ccc(/C=C/C(=O)OC)cc2S1(=O)=O [KUC102268N] ; % NleB1 inhibition (µM compound) / 20 observed: 20.8

Sample O=c1cc(-c2ccccc2Cl)oc2c(NS(=O)(=O)c3cc(Cl)cc(Cl)c3O)ccc(O)c12 [KUC100066N] ; % NleB1 inhibition (µM compound) / 20 observed: 71.1

Sample CN(C)CCN1CCN(C2CN(Cc3cn(Cc4ccc(F)cc4)nn3)S(=O)(=O)C2)CC1 (centres unmarked) [KUC108117N] ; % NleB1 inhibition (µM compound) / 20 observed: 23.7

Sample CC(=O)c1ccc(OCc2cn(CC(=O)c3ccc(O)cc3)nn2)c(F)c1 [KUC104088N] ; % NleB1 inhibition (µM compound) / 20 observed: 47.7
